Reference source: patent US9840510B1

Listing: log10(solubility) of selected compounds
experiment: Compound solubility in water; assay type: physicochemical
PROPERTY: log10(solubility) (log10 of the value in µg/mL)

Cc1cc(C)n2ncc(C(=O)N[C@H]3CC[C@H](OCC(C)C)CC3)c2n1 [III-191]
1.42
Cc1cc(N2CCCC(F)(F)C2)nc2c(C(=O)NC(C)C(F)(F)F)cnn12 (stereo not drawn) [III-179]
0.04
Cc1cc(-c2ccc(F)cc2)n2ncc(C(=O)N[C@@H](C)C3CC3)c2n1 [III-8]
-0.30
Cc1cc(-c2ccc(Cl)nc2)nc2c(C(=O)NC(C3CC3)C(F)(F)F)cnn12 (stereo not drawn) [III-116]
0.00
Cc1cncc(-c2cc(C)n3ncc(C(=O)NC(C4CC4)C(F)(F)F)c3n2)c1 (stereo not drawn) [III-275]
0.41
COc1cc(F)ccc1-c1cc(C)n2ncc(C(=O)NC(C3CC3)C(F)(F)F)c2n1 (stereo not drawn) [III-149]
0.04
Cc1cc(-c2ccc3c(c2)OCO3)nc2c(C(=O)NC(C)C(F)(F)F)cnn12 (stereo not drawn) [III-289]
-0.10
Cc1cc(-c2cncc(Cl)c2)nc2c(C(=O)N[C@@H](C)C3CC3)cnn12 [III-290]
0.32
Cc1cc(-c2cccc(Oc3ncccn3)c2)nc2c(C(=O)NC(C3CC3)C(F)(F)F)cnn12 (stereo not drawn) [III-103]
-0.10
COc1ccncc1-c1cc(C)n2ncc(C(=O)NC(C)C(F)(F)F)c2n1 (stereo not drawn) [III-269]
1.10
Cc1cc(-c2ccncc2)n2ncc(C(=O)N[C@@H](C)C3CC3)c2n1 [III-29]
1.28
Cc1cc(-c2cc(C)n3ncc(C(=O)NC(C4CC4)C(F)(F)F)c3n2)sn1 (stereo not drawn) [III-214]
0.36
Cc1cc(N2CCC(F)(F)C2)nc2c(C(=O)NC(C)C(F)(F)F)cnn12 (stereo not drawn) [III-180]
0.68
Cc1cc(-c2cccc(C#N)n2)nc2c(C(=O)NC(C3CC3)C(F)(F)F)cnn12 (stereo not drawn) [III-133]
-0.70
Cc1cc(-c2cnccc2C(F)(F)F)nc2c(C(=O)N[C@H](C3CC3)C(F)(F)F)cnn12 [III-353]
0.92
Cc1cc(-c2ccc(F)cc2C#N)nc2c(C(=O)N[C@@H](C)C(F)(F)F)cnn12 [III-156]
-0.52
Cc1cc(-c2cccc(-n3cccn3)c2)nc2c(C(=O)NC(C3CC3)C(F)(F)F)cnn12 (stereo not drawn) [III-415]
0.08
Cc1cc(-c2cccnc2C#N)nc2c(C(=O)N[C@@H](C3CC3)C(F)(F)F)cnn12 [III-366]
0.04

* * *

assay: Compound solubility in water; type: physicochemical
solubility of 1 µg/mL or higher: class 1. Under 1 µg/mL: class 0.

C#CC(NC(=O)c1cnn2c(C)cc(-c3cccc(Cl)c3)nc12)C(F)(F)F (stereo not drawn)
class 0
Cc1cc(-c2ccccn2)nc2c(C(=O)NC(C)(C)C(F)(F)F)cnn12
class 0
Cc1cc(C(F)(F)F)nc2c(C(=O)NC(C)(C)C3CC3)cnn12
class 1
Cc1cc(-c2cccc3ncoc23)nc2c(C(=O)N[C@@H](C)C3CC3)cnn12
class 1
Cc1cc(-c2ncccc2F)nc2c(C(=O)NC(C3CC3)C(F)(F)F)cnn12 (stereo not drawn)
class 0
Cc1cncc(-c2cc(C)n3ncc(C(=O)NC(C)C(F)(F)F)c3n2)c1 (stereo not drawn)
class 1
Cc1cc(-c2ccc(C#N)o2)nc2c(C(=O)NC(C3CC3)C(F)(F)F)cnn12 (stereo not drawn)
class 1
Cc1cc(-c2cccc(F)n2)nc2c(C(=O)NC(C)C3CC3)cnn12 (stereo not drawn)
class 0
Cc1cc(-c2cnccc2F)nc2c(C(=O)NC(C)C(F)(F)F)cnn12 (stereo not drawn)
class 1
CCc1cc(N2CCOCC2)nc2c(C(=O)NC(C3CC3)C(F)(F)F)cnn12 (stereo not drawn)
class 1
Cc1cc(-c2cccc(F)c2)nc2c(C(=O)N[C@H](C)C(F)(F)F)cnn12
class 0
Cc1cc(-n2ccc(F)n2)nc2c(C(=O)N[C@H](C3CC3)C(F)(F)F)cnn12
class 1
Cc1cc(-c2cccnc2)nc2c(C(=O)N[C@@H](C3CC3)C(F)(F)F)cnn12
class 1
Cc1cc(N2C[C@@H](c3ccccc3)OC2=O)nc2c(C(=O)NC(C3CC3)C(F)(F)F)cnn12 (stereo partly drawn)
class 0
COc1cncc(-c2cc(C)n3ncc(C(=O)NC(C)C(F)(F)F)c3n2)c1 (stereo not drawn)
class 1
Cc1cc(-c2ccc(F)c(C(N)=O)c2)nc2c(C(=O)N[C@@H](C)C3CC3)cnn12
class 1
Cc1cc(-c2cccc(F)c2)nc2c(C(=O)NC(C)(C)C(F)(F)F)cnn12
class 0
Cc1cc(-c2cccc(F)c2C#N)nc2c(C(=O)N[C@@H](C)C(F)(F)F)cnn12
class 0

* * *

test: Compound solubility in water; assay type: physicochemical
Listing: solubility of selected compounds
PROPERTY: solubility (µg/mL)

Cc1cc(NC2CC2)nc2c(C(=O)NC(C3CC3)C(F)(F)F)cnn12 (stereo not drawn)
3
Cc1cc(-c2cccc3ncoc23)nc2c(C(=O)NC(C)(C)C(F)(F)F)cnn12
2.7
COc1ccc(-c2cc(C)n3ncc(C(=O)N[C@H](C)C(F)(F)F)c3n2)cn1
3.1

* * *

Listing: solubility of selected compounds
assay: Compound solubility in water; format: physicochemical
PROPERTY: solubility (µg/mL)

Cc1cc(-c2ccc(F)cc2)nc2c(C(=O)N[C@@H](C)C3CC3)cnn12
1.6
Cc1cncc(-c2cc(C)n3ncc(C(=O)N[C@@H](C4CC4)C(F)(F)F)c3n2)c1
5.3
Cc1cc(N2CCOCC2)nc2c(C(=O)NC(C)C3CC3)cnn12 (stereo not drawn)
20.1
Cc1ccc(-c2cc(C)n3ncc(C(=O)NC(C)C(F)(F)F)c3n2)cn1 (stereo not drawn)
12.7
Cc1cc(-c2cc(F)cc(C#N)c2)nc2c(C(=O)N[C@@H](C)C3CC3)cnn12
3
COc1cc(F)ccc1-c1cc(C)n2ncc(C(=O)NC(C)C(F)(F)F)c2n1 (stereo not drawn)
0.7
Cc1cc(-c2ccc(F)cc2)nc2c(C(=O)N[C@H](C)C3CC3)cnn12
2.8
Cc1cc(N2CCN(C(C)C)C2=O)nc2c(C(=O)N[C@H](C3CC3)C(F)(F)F)cnn12
32.8
COc1cccc(-c2cc(C)n3ncc(C(=O)N[C@@H](C)C4CC4)c3n2)c1
2.7
Cc1cc(-c2cccc3ncsc23)nc2c(C(=O)N[C@@H](C)C3CC3)cnn12
0.6
COc1ccc(-c2cc(C)n3ncc(C(=O)N[C@@H](C)C(F)(F)F)c3n2)cn1
3.4
Cc1cc(-c2ccc3scnc3c2)nc2c(C(=O)NC(C)C(F)(F)F)cnn12 (stereo not drawn)
0.1
Cc1cc(-c2cccc(-c3ncon3)c2)nc2c(C(=O)NC(C3CC3)C(F)(F)F)cnn12 (stereo not drawn)
0.2
Cc1cc(-c2cccc(-c3ncccn3)n2)nc2c(C(=O)NC(C3CC3)C(F)(F)F)cnn12 (stereo not drawn)
1
Cc1cc(-c2cccc(-c3ncc[nH]3)c2)nc2c(C(=O)NC(C3CC3)C(F)(F)F)cnn12 (stereo not drawn)
0.4
Cc1cc(-c2cccnc2F)nc2c(C(=O)N[C@@H](C3CC3)C(F)(F)F)cnn12
1.9
Cc1cc(-c2ccc(F)cc2C#N)nc2c(C(=O)N[C@@H](C)C3CC3)cnn12
0.5
Cc1cc(-c2ccc(Cl)cn2)nc2c(C(=O)N[C@@H](C3CC3)C(F)(F)F)cnn12
0.4
Cc1cc(-c2ccco2)nc2c(C(=O)NC(C3CC3)C(F)(F)F)cnn12 (stereo not drawn)
0.6
CCc1cc(N2CCN(C(C)C)C2=O)nc2c(C(=O)NC(C3CC3)C(F)(F)F)cnn12 (stereo not drawn)
1.2
Cc1cc(N2CCNC2=O)nc2c(C(=O)NC(C3CC3)C(F)(F)F)cnn12 (stereo not drawn)
2.4
Cc1cc(-c2cccc(C#N)c2)nc2c(C(=O)NC(C)(C)C3CC3)cnn12
0.5
C#CC(C)(C)NC(=O)c1cnn2c(C)cc(-c3cccc(OC4CC4)c3)nc12
1.5
Cc1cc(N2CCCC(F)(F)C2)nc2c(C(=O)NC(C3CC3)C(F)(F)F)cnn12 (stereo not drawn)
0.3
Cc1cc(-c2ccns2)nc2c(C(=O)N[C@H](C3CC3)C(F)(F)F)cnn12
0.9
CCOc1cccc(-c2cc(C)n3ncc(C(=O)NC(C)C(F)(F)F)c3n2)c1 (stereo not drawn)
0.2
CCc1cc(-c2ccccn2)n2ncc(C(=O)NC(C)C(F)(F)F)c2n1 (stereo not drawn)
14.1

* * *

assay: Compound solubility in water; assay type: physicochemical
Listing: log10 of solubility of selected compounds
PROPERTY: log10 of solubility (log10 of the value in µg/mL)

C#CC(C)(C)NC(=O)c1cnn2c(C)cc(-c3ccns3)nc12
0.57
Cc1cc(-c2cccnc2)nc2c(C(=O)N[C@H](C)c3ccc(Cl)cc3)cnn12
0.32
COCc1cc(-c2cccc(OC)c2)nc2c(C(=O)NC(C)(C)C3CC3)cnn12
-0.30
COc1c(C#N)cccc1-c1cc(C)n2ncc(C(=O)N[C@@H](C)C3CC3)c2n1
1.24
Cc1cc(-c2ccc(N3CCOCC3)c(F)c2)nc2c(C(=O)NC(C)C(F)(F)F)cnn12 (stereo not shown)
-0.30
Cc1cc(-c2ccc3ncn(C)c3c2)nc2c(C(=O)NC(C3CC3)C(F)(F)F)cnn12 (stereo not shown)
-0.40
C#CC(C)(C)NC(=O)c1cnn2c(C)cc(-c3cccc(F)c3)nc12
-0.22
COc1ccc(F)cc1-c1cc(C)n2ncc(C(=O)NC(C)C(F)(F)F)c2n1 (stereo not shown)
-0.40
Cc1ncc(-c2cc(C)n3ncc(C(=O)N[C@H](C4CC4)C(F)(F)F)c3n2)o1
-0.22
Cc1cc(C)n2ncc(C(=O)NC(C)(C)C3CC4(CCC4)C3)c2n1
-0.52
